So I've got a bunch of compounds here, and I need their IC50 values.
biological target: DNA-PK (Homo sapiens (Human)); assay: DNA-PK Enzyme-Linked Immunosorbent Assay (phosphorylation of GST-p53 (1-101) peptide); format: biochemical; settings: ELISA, 20 μM ATP
Counter-ions that a name gives are not always drawn.

Worked examples, 10 compounds total:
{"compound": "CC(C)NCCOc1ncc(-c2cc3c(cc2F)ncc2c3[C@]3(C[C@H](OC(C)C)C3)C(=O)N2C)cc1NS(C)(=O)=O", "result": "1 to 100 nM"}
{"compound": "CC(C)NCCOc1ncc(-c2cc3c(cc2F)ncc2c3[C@]3(C[C@@H](c4cccnc4)C3)C(=O)N2C)cc1NS(C)(=O)=O", "result": "1 to 100 nM"}
{"compound": "CN1C(=O)C2(CCC2)c2c1cnc1ccc(-c3cnc(N4CCC(N5CCOCC5)CC4)c(NS(C)(=O)=O)c3)cc21 [Example 357, hydrochloride]", "result": "0.5 to 1 nM"}
{"compound": "Cc1cccc(N2CC3(C2)C(=O)N(C)c2cnc4cc(F)c(-c5cnc(OCCNC(C)C)c(NS(C)(=O)=O)c5)cc4c23)c1", "result": "1 to 100 nM"}
{"compound": "CC(C)NCCOc1ncc(-c2cc3c(cc2F)ncc2c3[C@]3(C[C@H](C)C3)C(=O)N2C)cc1NS(C)(=O)=O", "result": "1 to 100 nM"}
{"compound": "CCS(=O)(=O)Nc1cc(-c2cc3c4c(cnc3cc2F)N(C)C(=O)C42CN(C(C)C)C2)cnc1OCCNC(C)C", "result": "0.5 to 1 nM"}
{"compound": "CC(C)NCCOc1ncc(-c2cc3c4c(cnc3cc2F)N(C)C(=O)C42CN(c3ccccc3)C2)cc1NS(C)(=O)=O [Example 519, hydrochloride]", "result": "< 0.5 nM"}
{"compound": "CC(C)NCCOc1ncc(-c2cc3c4c(cnc3cc2F)N(C)C(=O)C42CCC2)cc1NS(=O)(=O)N1CCC1", "result": "1 to 100 nM"}
{"compound": "CC(C)NCCOc1ncc(-c2cc3c4c(cnc3cc2F)N(C)C(=O)C42CN(c3ccc(F)cc3)C2)cc1NS(C)(=O)=O [Example 538, hydrochloride]", "result": "1 to 100 nM"}
{"compound": "CC(C)NCCOc1ncc(-c2cc3c(cc2F)ncc2c3[C@]3(C[C@H](c4ccccn4)C3)C(=O)N2C)cc1NS(C)(=O)=O", "result": "1 to 100 nM"}

// each compound listed below needs its IC50
1. COc1ccc([C@H]2C[C@]3(C2)C(=O)N(C)c2cnc4cc(F)c(-c5cnc(OCCNC(C)C)c(NS(C)(=O)=O)c5)cc4c23)cn1
2. CC(C)NCCOc1ncc(-c2cc3c4c(cnc3cc2F)N(C)C(=O)C42CN(c3ccccc3F)C2)cc1NS(C)(=O)=O
3. CC(C)NCCOc1ncc(-c2cc3c(cc2F)ncc2c3[C@]3(C[C@@H](c4ccccn4)C3)C(=O)N2C)cc1NS(C)(=O)=O

Data returned:
1. 1 to 100 nM
2. < 0.5 nM
3. 1 to 100 nM

====

Hi there, I'd appreciate the recorded pIC50 for every entry that follows.
biological target: DNA-PK (Homo sapiens (Human), UniProt P78527); test: DNA-PK Enzyme-Linked Immunosorbent Assay (phosphorylation of GST-p53 (1-101) peptide); format: biochemical; settings: ELISA, ATP 20 μM
pIC50: −log10 of the molar value. Counter-ions that a name gives are not always drawn.

{"compound": "CN1CCN(c2ncc(-c3ccc4ncc5c(c4c3)C3(CCC3)C(=O)N5C)cc2NS(=O)(=O)c2ccccc2)CC1", "experimental_readout": "pIC50", "result": "7.00 to 9.00"}
{"compound": "CN(C)CCCOc1ncc(-c2ccc3ncc4c(c3c2)C2(CCC2)C(=O)N4C)cc1NS(=O)(=O)c1ccsc1", "experimental_readout": "pIC50", "result": "7.00 to 9.00"}
{"compound": "CN(C)CCCOc1ncc(-c2ccc3ncc4c(c3c2)C2(CCC2)C(=O)N4C)cc1NS(=O)(=O)c1ccc(S(F)(F)(F)(F)F)cc1", "experimental_readout": "pIC50", "result": "7.00 to 9.00"}
{"compound": "Cc1ccc(S(=O)(=O)Nc2cc(-c3ccc4ncc5c(c4c3)C3(CCC3)C(=O)N5C)cnc2OCCCN(C)C)cc1 [Example 145, hydrochloride]", "experimental_readout": "pIC50", "result": "9.00 to 9.30"}
{"compound": "COc1cc(-c2ccc3ncc4c(c3c2)C2(CC2)C(=O)N4C)cnc1OCCCN(C)C", "experimental_readout": "pIC50", "result": "< 7.00"}

// for each compound in input: emit pIC50
1. CN(C)CCCOc1ncc(-c2ccc3ncc4c(c3c2)C2(CCC2)C(=O)N4C)cc1NS(=O)(=O)c1ccccc1
2. CNCCOc1ncc(-c2ccc3ncc4c(c3c2)C2(CC2)C(=O)N4C)cc1NS(=O)(=O)c1ccccc1
3. Cc1ccc(S(=O)(=O)Nc2cc(-c3ccc4ncc5c(c4c3)C3(CCC3)C(=O)N5C)cnc2N2CCN(C)CC2)cn1
4. CN(C)CCCOc1ncc(-c2ccc3ncc4c(c3c2)C2(CCC2)C(=O)N4C)cc1NS(=O)(=O)c1ccc(F)c(C#N)c1 [Example 159, hydrochloride]
5. COc1ncc(-c2ccc3ncc4c(c3c2)C2(CC2)C(=O)N4)cc1NS(=O)(=O)c1ccccc1
6. CN(C)CCCOc1ncc(-c2ccc3ncc4c(c3c2)C2(CC2)C(=O)N4C)cc1NS(=O)(=O)c1cnn(C)c1
7. COc1ccc(S(=O)(=O)Nc2cc(-c3ccc4ncc5c(c4c3)C3(CCC3)C(=O)N5C)cnc2OCCCN(C)C)cn1 [Example 133, hydrochloride]

Data returned:
1. > 9.30
2. 9.00 to 9.30
3. > 9.30
4. 9.00 to 9.30
5. > 9.30
6. > 9.30
7. 9.00 to 9.30

Take each entry in turn and give its pIC50.
1. CN1C(=O)C2(CCC2)c2c1cnc1ccc(-c3cnc(OCCCN4CCOCC4)c(NS(=O)(=O)c4ccccc4)c3)cc21 [Example 131, hydrochloride]
2. CN(C)CCCOc1ncc(-c2ccc3ncc4c(c3c2)C2(COC2)C(=O)N4C)cc1NS(=O)(=O)C1CC1
3. CN1C(=O)C2(CCC2)c2c1cnc1ccc(-c3cnc(OCCCN4CCCCC4)c(NS(=O)(=O)c4cc(F)cc(Cl)c4)c3)cc21 [Example 196, hydrochloride]
4. CN(C)CCCOc1ncc(-c2ccc3ncc4c(c3c2)C2(CC2)C(=O)N4C)cc1NS(=O)(=O)C1COC1
5. CN(C)CCCOc1ncc(-c2ccc3ncc4c(c3c2)C2(CC2)C(=O)N4C)cc1NS(=O)(=O)c1cccc(C#N)c1
6. CN1C(=O)C2(CCC2)c2c1cnc1cc(F)c(-c3cnc(N4CC(N(C)C)C4)c(NS(=O)(=O)c4ccccc4)c3)cc21 [Example 324, hydrochloride]

Data returned:
["7.00 to 9.00", "7.00 to 9.00", "7.00 to 9.00", "9.00 to 9.30", "> 9.30", "7.00 to 9.00"]

Okay, here is my list. What is pIC50 for each of these?
1. CN1C(=O)C2(CC2)c2c1cnc1cc(F)c(-c3cnc(OCCCN4CCCC4)c(NS(=O)(=O)c4ccccc4)c3)cc21
2. CN1CCN(CCCOc2ncc(-c3ccc4ncc5c(c4c3)C3(CCC3)C(=O)N5C)cc2NS(C)(=O)=O)CC1

Data returned:
1: 7.00 to 9.00; 2: 7.00 to 9.00

Give pIC50 for each of the items listed below.
1. CCN(C)S(=O)(=O)Nc1cc(-c2ccc3ncc4c(c3c2)C2(CCC2)C(=O)N4C)cnc1OCCCN1CCCCC1
2. CCc1ncc(S(=O)(=O)Nc2cc(-c3ccc4ncc5c(c4c3)C3(CCC3)C(=O)N5C)cnc2OCCCN(C)C)s1
3. CN(C)CCCOc1ncc(-c2ccc3ncc4c(c3c2)C2(CC2)C(=O)N4C)cc1NS(=O)(=O)Cc1ccccc1

Data returned:
1. 7.00 to 9.00
2. > 9.30
3. 7.00 to 9.00
